This collection of values is drawn from patent US20230039836A1.

- Test system: MCF-7 (human breast adenocarcinoma, estrogen-positive)
- EXPERIMENTAL DETAILS: MTT antiproliferative assay, 48 h
- Assay type: cell-based
- ASSAY CONDITIONS: Homo sapiens, MCF7, 48-hour exposition, read-out: Cytotoxicity, IC50, µM MCF-7
READOUT KIND: log10(IC50) (log10 of the value in µM)
Use the decimal logarithm of IC50 (µM).

Completed entries (count: 8):
| COMPOUND | READOUT KIND | REPORTED VALUE |
| --- | --- | --- |
| CCCCc1ccc(S(=O)(=O)N2CC2C(C)=O)cc1 (stereo not shown) | log10(IC50) | 1.41 |
| COC(=O)C1CN1S(=O)(=O)c1ccco1 (stereo not shown) | log10(IC50) | 2.66 |
| Cc1ccc(S(=O)(=O)N2CC2C=O)cc1 (stereo not shown) | log10(IC50) | 0.86 |
| CNc1ccc2cc(S(=O)(=O)N3CC3C(=O)OC)ccc2c1Cl (stereo not shown) | log10(IC50) | 1.46 |
| CN(C)C(=O)C1CN1S(=O)(=O)c1ccc(N(C)C)cc1 (stereo not shown) | log10(IC50) | 2.47 |
| COC(=O)C1CN1S(=O)(=O)c1ccc2c(C=O)c(N(C)C)ccc2c1 (stereo not shown) | log10(IC50) | 1.30 |
| COC(=O)[C@H]1CN1S(=O)(=O)c1cccc2cc(N(C)C)ccc12 (stereo partly shown) | log10(IC50) | 1.46 |
| NC(=O)C1CN1S(=O)(=O)c1ccc(C(F)(F)F)cc1 (stereo not shown) | log10(IC50) | 2.19 |

Please supply log10(IC50) for each of the following items, keeping them in order.
1. COC(=O)C1CN1S(=O)(=O)c1ccc2[nH]c(=O)ccc2c1 (stereo not shown)
2. Cc1ccc(S(=O)(=O)N2CC2C#N)cc1 (stereo not shown)

Response:
[1.90, 2.31]

Each of the following entries comes with a recorded value; kindly state log10(IC50) for each.
1. COC(=O)[C@@H]1CN1S(=O)(=O)c1cccc2cc(N(C)C)ccc12 (stereo partly shown)
2. COC(=O)[C@H]1CN1S(=O)(=O)c1ccc(C)cc1 (stereo partly shown)

Response:
1.57
2.05

List log10(IC50) for every entry below, keeping the order given.
1. CC(=O)C1CN1S(=O)(=O)c1ccc(C)cc1 (stereo not shown)
2. CN(C)C(=O)C1CN1S(=O)(=O)c1cccc2cc(N(C)C)ccc12 (stereo not shown)
3. COC(=O)C1CN1S(=O)(=O)c1ccc(NC(C)=O)cc1 (stereo not shown)
4. COC(=O)C1CN1S(=O)(=O)c1cccc2c(N(C)C)cccc12 (stereo not shown)
5. CCCCCCc1ccc(S(=O)(=O)N2CC2C(N)=O)cc1 (stereo not shown)

Response:
[1.23, 0.68, 2.69, 2.54, 1.67]
